Hey, just so you know, these numbers are from ChEMBL document CHEMBL3430912.

- Tested on: Leishmania donovani
- assay details: GSK_TCAKS: pIC50 Leishmania donovani viability assay using fluorescence intensity. Assay plates (1536-well) were prepared by adding 30nL per well of compound. For single shot assay, the final compound concentration was 5uM. […] Briefly, eGFP LdBOB axenic amastigotes were harvested, fixed and counted in a CASY cell counter (Roche-Applied Science). A final concentration of 1.5 * 10^5 cells per well were prepared in amastigote media containing 500 U/mL penicillin/streptomycin (Invitrogen) and 6uL was dispensed to each experimental well using a Multidrop Combi dispenser (Thermo Scientific). 6uL of assay media was dispensed to control columns used as reference for 100% compound response. Following incubation for 72 h at 37C, 5% CO2, 2 uL of resazurin was added to each well at a final concentration of 0.5 mM in phosphate buffered saline (PBS) with IGEPAL (Sigma-Aldrich), 0.05% (v/v).
- Format: functional, organism-based
pIC50: −log10 of the molar value.
Short version: pIC50 at least 5 is Condition met, less is Condition not met.

Task: Is the recorded value of pIC50 equal to or greater than 5 for this molecule? CCCn1c(NC(=O)Cc2ccc(Cl)cc2)nc2ccccc21
Result: Condition not met

Task: Ok, now CN(C)CCOc1ccc(N2CCN(S(=O)(=O)c3ccc(Cl)cc3)CC2)cc1
Result: Condition not met
